Target: T1, CB1 surface expression (CB1 TRex-CHO / TRex-293 cells) (Homo sapiens, UniProt P21554)
T1 construct: pcDNA4/TO native full length human CB1 receptor construct was transfected into tetracycline inducible system Trex-CHO and Trex-293 cells; expressed in transfected cells; tetracycline induced
T1 sequence (P21554 whole entry): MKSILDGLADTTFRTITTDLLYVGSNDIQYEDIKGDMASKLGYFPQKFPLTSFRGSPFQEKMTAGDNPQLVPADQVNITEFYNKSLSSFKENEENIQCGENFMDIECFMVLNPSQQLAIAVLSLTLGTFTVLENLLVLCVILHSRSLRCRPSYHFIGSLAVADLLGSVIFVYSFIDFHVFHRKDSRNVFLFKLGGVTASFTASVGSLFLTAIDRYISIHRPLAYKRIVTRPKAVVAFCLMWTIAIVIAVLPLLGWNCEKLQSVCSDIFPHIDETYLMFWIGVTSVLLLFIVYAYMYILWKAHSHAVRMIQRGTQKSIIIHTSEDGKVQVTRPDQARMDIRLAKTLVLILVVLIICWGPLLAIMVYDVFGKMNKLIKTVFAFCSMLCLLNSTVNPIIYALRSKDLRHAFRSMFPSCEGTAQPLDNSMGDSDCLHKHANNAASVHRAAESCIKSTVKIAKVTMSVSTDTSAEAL
Assay type: cell-based
Conditions: 1 hour
Method: 5×10^5 cells/well stably expressing CB1 TRex-CHO cells were seeded in a 6-well plate. Tetracycline (1 μg/ml) was added to culture medium for 24 hours to induce CB1 expression. On the day of the experiment, cells were serum starved for 2 hours. […] Surface expression of CB1 was stained with anti-CB1 N-terminus mouse monoclonal antibody from R&D and the mean fluorescence intensity (MFI) was determined using flow cytometry. […]
metric: CB1 receptor internalization induced by the substance alone

Lookup: Item under review: PA2LR3-P6B12: anti-CB1 antibody; HC variable SEQ ID NO: 50, LC variable SEQ ID NO: 54 (antibody, V domains shown, PA2LR3-P6B12 Heavy chain variable region; PA2LR3-P6B12 Light chain variable region) VH: EVQLQQSGAELVRPGSSVKISCKASGYAFSYYWMNWVKQRPGQGLEWIGQIYPGDGDTNYNGKFKGKATLTADKSSSTAYMQLSSLTSEDSAVYFCARSHGNYFAYWGQGTLVTVSA VL: QIVLTQSPAIMSASLGERVTMTCTASSSVSSSYLHWYQQKPGSSPKLWIYSTSNLASGVPARFSGSGSGTSYSLTISSMEAEDAATYYCHQYHRSPLAFGAGTKLELK . Reported CB1 receptor internalization induced by the substance alone?
Found: do not induce

Lookup: Item under review: PA2LR3-P4B5: anti-CB1 antibody; HC variable SEQ ID NO: 26, LC variable SEQ ID NO: 30 (antibody, V domains shown, PA2LR3- P4B5 Heavy chain variable region; PA2LR3- P4B5 Light chain variable region) VH: EVQLQQSGAELVRPGSSVKISCKASGYAFSYYWMNWVKQRPGQGLEWIGQIYPGDGDTNYSGRFKGKATLTADKSSSTAYIQLSSLTSEDSAVYFCARSHGNYFPYWGQGTLVTVSA VL: DIVLNQSPAIMSASLGERVTMTCTASSSVSSSYLHWYQQKPGSSPKLWIYSTSNLASGVPARFSGSGSGTSYSLTISSMEAEDAATYYCHQYHRSPLTFGAGTKLEIK . Reported CB1 receptor internalization induced by the substance alone?
Found: do not induce

Measured values drawn from patent US11421026B2 for this set.
